Conditions: 293.15 K; 101.33 kPa; Liquid; Vibrating tube method
QUANTITY_MEASURED: mass density (kg/m3)

Cc1ccncc1 [4-methylpyridine]    955.099
c1ccncc1 [pyridine]    983.191
Cc1cccnc1 [3-methylpyridine]    956.581
CCn1cc[n+](C)c1.F[B-](F)(F)F [1-ethyl-3-methylimidazolium tetrafluoroborate]    1283.89
Cc1ccccn1 [2-methylpyridine]    944.401

----------
Details: 303.15 K; 101.33 kPa; Liquid; Linear variable-path acoustic interferometer
QUANTITY_MEASURED: speed of sound (m/s)

Cc1ccncc1    1410.7
CCn1cc[n+](C)c1.F[B-](F)(F)F [1-ethyl-3-methylimidazolium tetrafluoroborate]    1607.6
Cc1ccccn1    1361
c1ccncc1    1398
Cc1cccnc1    1404

----------
Settings: 308.15 K; 101.33 kPa; Liquid; Linear variable-path acoustic interferometer
QUANTITY_MEASURED: speed of sound (m/s)

Cc1cccnc1    1384
c1ccncc1    1377.1
Cc1ccccn1    1339.9
Cc1ccncc1    1389.9
CCn1cc[n+](C)c1.F[B-](F)(F)F [1-ethyl-3-methylimidazolium tetrafluoroborate]    1596.3

----------
Conditions: 303.15 K; 101.33 kPa; Liquid; Vibrating tube method
QUANTITY_MEASURED: mass density (kg/m3)

Cc1ccccn1    935.117
c1ccncc1    973.224
Cc1cccnc1    947.449
CCn1cc[n+](C)c1.F[B-](F)(F)F [1-ethyl-3-methylimidazolium tetrafluoroborate]    1276.26
Cc1ccncc1    945.413

----------
Details: 293.15 K; 101.33 kPa; Liquid; Linear variable-path acoustic interferometer
QUANTITY_MEASURED: speed of sound (m/s)

Cc1cccnc1    1445.9
Cc1ccccn1    1400.5
Cc1ccncc1    1451.1
c1ccncc1    1442
CCn1cc[n+](C)c1.F[B-](F)(F)F [1-ethyl-3-methylimidazolium tetrafluoroborate]    1631

----------
Conditions: 298.15 K; 101.33 kPa; Liquid; Vibrating tube method
QUANTITY_MEASURED: mass density (kg/m3)

CCn1cc[n+](C)c1.F[B-](F)(F)F [1-ethyl-3-methylimidazolium tetrafluoroborate]    1279.91
Cc1ccncc1    950.179
c1ccncc1    978.249
Cc1ccccn1    939.802
Cc1cccnc1    952.002
